protocol text: BET inhibitor-based combinations targeting novel dependencies in MECOM-rearranged (r) AML: MV-4-11 cell line (AID 2202233); note: nearly all actives have a fitted effect of over 45% in size
study conditions: MV-4-11 AML viability, CellTiter-Glo luminescence, 48 h; series mostly up to 46 µM
Records with an inconclusive call do not appear. The source made the active and inactive calls. Calls come from the whole dose curve; as a rule, active = well fitted inhibition curve with a large enough effect; inconclusive = small, poorly fitted or top-dose-only effect; inactive = no such curve, though single readings can be large or run the other way.
The reply should name one outcome from active, inactive

Assay outcome for "CNS(=O)(=O)c1ccc2c(c1)/C(=C/c1[nH]c3c(c1CCCN1CCN(C)CC1)CCCC3)C(=O)N2" : what was it? active

Okay, and CCCNC(=O)[C@H]1O[C@@H]1C(=O)N[C@H](C(=O)N1CCC[C@H]1C(=O)OC)C(C)CC (some centres undefined) ? active

Same question, "Cn1c(-c2ccccc2C(F)(F)F)nnc1C12CCC(c3noc(C4CC(F)(F)C4)n3)(CC1)CC2" this time active

Would you kindly repeat that for "Cc1cc(-c2nc3cc(F)ccc3s2)ccc1NC(=O)[C@@H](N)CCCCN" ? active

Now consider "COc1cc(=C2C=c3ccccc3=N2)[nH]/c1=C/c1[nH]c(C)cc1C" and answer again. active

Also need "CC(C)Oc1ccc(C(=O)N[C@H](CNC(=O)CN(C)C)Cc2ccc(-c3cn4cccc([C@H](C)O)c4n3)cc2)cc1Cl" , thanks. active

Entry to check: "O=C(O)CCNc1cc(N2CCc3ccccc3CC2)nc(-c2cccnc2)n1" inactive

Likewise for "C=CC(=O)N1CCc2ccc(-n3c(=O)ccc4cnc5ccc(-c6cnn(C)c6)cc5c43)cc21" ? active

Repeat with COc1nc(N)nc2c1ncn2C1OC(CO)C(O)C1O (centres undefined) inactive
